Here, each record is paired with measured logP data.
ASSAY_INFO: method code SF, from Hansch, C. & Leo, A. (1987). Log P database [Dataset]. Pomona College Medicinal Chemistry Project.
Could you keep your reply to the number by itself?

COMPOUND	logP
CC(=O)c1ccc([C@@H](O)[C@@H](CO)NC(=O)C(Cl)Cl)cc1	0.57
Cc1oc2ccccc2c(=O)c1C	2.31
Cn1c(=O)cnc2ccccc21	0.79
Cc1ccc(C(N)=O)cc1	1.18
CC(=O)Nc1cccc(I)c1	2.64
Brc1cccs1	2.75
CC(C)c1cccc(C(C)C)c1N	3.18
Nc1c(S(=O)(=O)O)ccc2ccccc12	-0.97

Requested field: logP. Item: OC/C=C/c1ccccc1 1.95

Quick one: logP for COc1ccccc1C=CC(=O)ON=Cc1ccc(OCCO)c(OC)c1 ? 3.56

For the compound shown here, O=CC(CO)OC(C=O)n1cnc2c(O)ncnc21 (stereo not given) , give the reported logP. -2.11

So what does the record say about logP for CCC(C)C1=Nc2ccc(Cl)cc2S(=O)(=O)N1 (stereo not given) ? 2.47

Entry CCOc1ccccc1 : reported logP = ? 2.51

Entry under review: COc1cc(OC)c(OC)cc1CC(C)N (stereo not given) . Reported logP? 1.74

I have this compound here, C=CC=C , and I need its recorded logP. 1.99

Look at this compound and give its reported logP. CCCOc1cn[nH]c1 1.42

Endpoint output: logP of CCOP(=O)(OCC)Oc1ccc(SC)cc1C . Value? 3.21

Record request: logP value, item OCCOc1ccccc1 1.16

Can you look up the measured logP of O=[N+]([O-])C=Cc1ccoc1 for me? 1.41

Which logP reading was recorded for the compound CCCCC1C(=O)NC(=O)NC1=O ? 0.77

Would you mind telling me what logP value was observed for CCOC(=O)C(=Cc1ccccc1)C(C)=O ? 2.21

# logP lookup, item COc1ccc(-c2nc3cnccc3[nH]2)c(OCCCCl)c1 3.53

###

Measured logP, listed per entry for reference.
ASSAY_INFO: method code SF, from Hansch, C. & Leo, A. (1987). Log P database [Dataset]. Pomona College Medicinal Chemistry Project.

MOLECULE	logP
C=C(F)F	1.24
NS(=O)(=O)NS(=O)(=O)Nc1ccccc1	0.02
CC(C)(C)[N+](=O)[O-]	1.01
COc1ccc(Cn2ccnc2C=Cc2ccc([N+](=O)[O-])o2)cc1	1.37

Which logP is reported for this molecule? O=c1n[n+]([O-])ccn1Cc1ccccc1 0.19

Sample O=S1(=O)NC(C2CCC2)=Nc2ccc(Cl)cc21 — what was its logP? 2.24

Dear colleague, I am looking for the recorded logP of the following molecule: BrCCBr 1.96

Entry under review: CCOC(=O)C(=O)c1cccs1 . Reported logP? 1.77

Request the reported logP associated with C#CCCC(C)=O 0.58

What value of logP has been recorded for this entry: Cc1cccc(C)c1[N+](=O)[O-] 2.95

What measured logP goes with O=C(C(=O)c1ccco1)c1ccco1 ? 1.24

Given the entry CN(C)c1nc2ccccc2o1 , report its measured logP. 2.1

Can you look up the measured logP of CC1=Nc2c(Cl)cccc2S(=O)(=O)N1 for me? 0.72

May I ask what logP has been recorded for NC(=O)C(F)(F)F ? 0.12

Recorded logP for CN(C)C(=O)Nc1ccc(C(C)(C)C)cc1 , please? 3.1

So what's the measured logP for this one? O=[N+]([O-])CCc1ccccc1 2.08

Any idea what its logP is? The molecule is CC(=O)NC(=O)NC(C)=O -0.68

Item Nc1c2ccccc2nc2ccccc12 has what recorded logP? 2.74

What does the record list as logP for CCOS(=O)(=O)OCC ? 1.14

Please look up its logP: Cc1ccc2[nH]c(=O)[nH]c(=O)c2c1 0.55

I would be grateful if you could share the reported logP for NC1=NC(C(F)(F)F)(C(F)(F)F)NC1(C(F)(F)F)C(F)(F)F . 3.35

Recorded logP for OCCCC(F)(F)F , please? 0.9
